Source: PubChem BioAssay (EPA / NIEHS)

Assay: ATG_BRE_CIS: Attagene CIS-FACTORIAL HepG2 Assay for human Bone Morphogenetic Protein (BMP) Response Element (BRE) (AID 2282933)
Conditions: HepG2 BMP response element reporter, Attagene transcription factor profiling; actives raise or lower the signal
The source made the active and inactive calls. Rule for the calls: active = hit-call score of the fitted dose curve at least 0.9, where 1 is the maximum; inactive = score below 0.9.
metric: AC50

Worked set:
ClCCN1CCOCC1    inactive
Cc1cccc(N=Nc2ccc(N(C)C)cc2)c1    inactive
C[C@]12CC[C@@H](O)C[C@@H]1CC[C@@H]1[C@@H]2CC[C@]2(C)C(=O)CC[C@@H]12    inactive
N#Cc1ccc(Cl)cc1    inactive

Item: Nc1ccc(N)cc1 | AC50: inactive

Form: compound = CCCCOC(=O)COC(=O)c1ccccc1C(=O)OCCCC ; AC50 = inactive

Query O=[N+]([O-])c1ccc(Cl)c([N+](=O)[O-])c1 yields AC50 of inactive

The compound listed as Cc1ccccc1OP(=O)(Oc1ccccc1C)Oc1ccccc1C has a reported AC50 of inactive

Value of measured AC50 for the entry O=c1[nH]c(=O)n(Cl)c(=O)n1Cl : inactive

# AC50 of CCCCCCCCCCCCCl = inactive

Value of AC50 reported for the compound Cc1cccc(C)c1NC(=O)CN1CCCC1=O is inactive
